Measured values drawn from patent US6841552B1 for this set.

Listed here are compounds together with their documented inhibition at 0.3 µM.
# experimental target: human neuropeptide Y5 receptor (Homo sapiens, UniProt Q15761)
# Construct: expressed in transfected cells; membranes
# Sequence (Q15761 whole entry): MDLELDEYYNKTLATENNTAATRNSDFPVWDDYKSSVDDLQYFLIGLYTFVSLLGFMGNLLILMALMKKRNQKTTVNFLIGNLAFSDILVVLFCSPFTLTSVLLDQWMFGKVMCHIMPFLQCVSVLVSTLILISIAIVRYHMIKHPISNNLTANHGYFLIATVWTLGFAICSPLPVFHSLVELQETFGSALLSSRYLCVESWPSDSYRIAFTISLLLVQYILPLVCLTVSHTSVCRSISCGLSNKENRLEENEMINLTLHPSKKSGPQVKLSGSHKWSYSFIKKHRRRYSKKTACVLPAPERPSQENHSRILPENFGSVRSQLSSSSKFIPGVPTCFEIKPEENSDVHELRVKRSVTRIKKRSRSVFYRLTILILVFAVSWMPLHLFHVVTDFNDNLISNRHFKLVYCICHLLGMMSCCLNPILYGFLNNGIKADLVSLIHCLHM
# assay summary: NPY5 HTS centrifugation assay: competition with 125I-PYY for binding to membranes of NPY5-transfected HEK293 cells
# test context: % inhibition of 125I-PYY binding at 300 nM compound; read-out: % Inh @ 300 nM
Where a name gives a salt, the structure may show the parent alone.

>  <compound>
COc1ccc2c(c1)CC[C@@H]1N=C(NC[C@H]3CC[C@H](CNS(=O)(=O)c4ccccc4)CC3)C[C@H]21 (relative stereo) [Compound 8]

>  <inhibition at 0.3 µM / %>
85

$$$$
>  <compound>
O=C(NC1=N[C@H]2CCc3cc(F)ccc3[C@H]2C1)[C@H]1CC[C@H](CNS(=O)(=O)c2ccccc2)CC1 (relative stereo) [Compound 15]

>  <inhibition at 0.3 µM / %>
89

$$$$
>  <compound>
O=C(NC1=N[C@H]2CCc3cc(Cl)ccc3[C@H]2C1)[C@H]1CC[C@H](CNS(=O)(=O)c2ccccc2)CC1 (relative stereo) [Compound 17]

>  <inhibition at 0.3 µM / %>
86

$$$$
>  <compound>
NC1(C(=O)CN2CCC(n3c(=O)[nH]c4ccccc43)CC2)CC2c3ccc(O)cc3CCC2N1 (stereo not drawn) [Compound 21]

>  <inhibition at 0.3 µM / %>
20

$$$$
>  <compound>
O=S(=O)(NC[C@H]1CC[C@H](CNC2=N[C@@H]3CCc4cc(O)ccc4[C@@H]3C2)CC1)c1ccccc1 [Compound 10, hydrochloride]

>  <inhibition at 0.3 µM / %>
74

$$$$
>  <compound>
O=S(=O)(NC[C@H]1CC[C@H](CNC2=N[C@H]3CCc4cc(Cl)ccc4[C@H]3C2)CC1)c1ccccc1 (relative stereo) [Compound 18]

>  <inhibition at 0.3 µM / %>
90

$$$$
>  <compound>
COc1ccc2c(c1)CC[C@@H]1N=C(NC(=O)[C@H]3CC[C@H](CNS(=O)(=O)c4ccccc4)CC3)C[C@H]21 (relative stereo) [Compound 19]

>  <inhibition at 0.3 µM / %>
80

$$$$
>  <compound>
O=C(CN1CCC(n2c(=O)[nH]c3ccccc32)CC1)NC1=N[C@@H]2CCc3ccccc3[C@@H]2C1 [Compound 11]

>  <inhibition at 0.3 µM / %>
48

$$$$
>  <compound>
O=C(NC1=N[C@H]2CCc3ccccc3[C@H]2C1)[C@H]1CC[C@H](CNS(=O)(=O)c2ccccc2)CC1 (relative stereo) [Compound 13]

>  <inhibition at 0.3 µM / %>
80

$$$$
>  <compound>
COc1ccc2c(c1)CCC1NC(N)(C(=O)CN3CCC(n4c(=O)[nH]c5ccccc54)CC3)CC21 (stereo not drawn) [Compound 20]

>  <inhibition at 0.3 µM / %>
0

$$$$
>  <compound>
O=S(=O)(NC[C@H]1CC[C@H](CNC2=N[C@H]3CCc4ccccc4[C@H]3C2)CC1)c1ccccc1 (relative stereo) [Compound 14]

>  <inhibition at 0.3 µM / %>
89

$$$$
>  <compound>
O=C(NC1=N[C@H]2CCc3cc(O)ccc3[C@H]2C1)[C@H]1CC[C@H](CNS(=O)(=O)c2ccccc2)CC1 (relative stereo) [Compound 9]

>  <inhibition at 0.3 µM / %>
97

$$$$
